Entries with their measured pIC50, system Prostaglandin G/H synthase 1 (Ovis aries):
Expect pIC50 as a plain number equal to -log10 of the molar concentration.

[ask] Quick check: pIC50 of CC(=O)c1nnn(-c2ccc(S(N)(=O)=O)cc2)c1C ?
[reply] 5.12

[ask] Quick check: pIC50 of C/C(=N\NC(N)=O)c1nnn(-c2ccc(F)cc2)c1C ?
[reply] 5.08

[ask] Quick check: pIC50 of C/C(=N\Nc1nc(-c2ccc(Cl)cc2)cs1)c1nnn(-c2ccc(F)cc2)c1C ?
[reply] 4.92

[ask] Quick check: pIC50 of C/C(=N\NC(N)=O)c1nnn(-c2ccc(S(=O)(=O)Nc3nccs3)cc2)c1C ?
[reply] 5.10

[ask] Quick check: pIC50 of C/C(=N\NC(N)=S)c1nnn(-c2ccc(Cl)cc2)c1C ?
[reply] 5.10

[ask] Quick check: pIC50 of Cc1c(-c2nn(-c3ccccc3)cc2/C=N/O)nnn1-c1ccc(F)cc1 ?
[reply] 4.96

[ask] Quick check: pIC50 of C/C(=N\Nc1nc(-c2ccc(Cl)cc2)cs1)c1nnn(-c2ccc(S(N)(=O)=O)cc2)c1C ?
[reply] 4.91
